Target: T1, human urotensin II receptor (UT) (human, UniProt Q9UKP6 1-389)
T1 construct: whole, on cells; also called hUT; hGPR14
T1 sequence (looked up): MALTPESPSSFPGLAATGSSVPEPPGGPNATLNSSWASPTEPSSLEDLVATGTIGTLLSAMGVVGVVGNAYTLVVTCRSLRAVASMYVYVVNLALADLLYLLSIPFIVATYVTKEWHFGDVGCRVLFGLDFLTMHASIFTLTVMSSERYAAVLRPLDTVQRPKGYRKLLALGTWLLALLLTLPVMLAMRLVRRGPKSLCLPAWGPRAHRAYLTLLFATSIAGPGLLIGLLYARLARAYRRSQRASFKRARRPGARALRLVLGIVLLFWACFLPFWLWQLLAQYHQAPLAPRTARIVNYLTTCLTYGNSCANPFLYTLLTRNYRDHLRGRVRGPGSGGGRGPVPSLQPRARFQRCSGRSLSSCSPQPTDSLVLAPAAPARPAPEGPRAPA
Assay: displacement of 0.2 nM 125I-hUII from CHO cells expressing human UT
Numbered stars: 1 amine (or outer) side, 2 acyl side, 3 side chain; on linkers, the order of the positions; unused ones are H or OH. Bridge positions count the residues as written; N and C are the ends. Square brackets hold non-standard residues; d marks the D form. Ends that are not written are not given here. dTiq = D-1,2,3,4-tetrahydroisoquinoline-1-carboxylic acid, O=C([C@H]1c2ccccc2CCN1[*:1])[*:2]; Phe(4-I) = N[C@@H](Cc1ccc(I)cc1)C(=O)O; 1Nal = N[C@@H](Cc1cccc2ccccc12)C(=O)O; d1Nal = N[C@H](Cc1cccc2ccccc12)C(=O)O; dPhg = N[C@@H](C(=O)O)c1ccccc1; Phg = N[C@H](C(=O)O)c1ccccc1; dAia = not defined here
READOUT KIND: pEC50
Number only, please.

Study these solved cases before continuing.
BINDER	READOUT KIND	RECORDED MEASUREMENT
H-ACF[Phg]KYCV-OH (disulfide 2-7, H-Ala-Cys-Phe-Phg-Lys-Tyr-Cys-Val-OH; also called compound 14) [[Phg^4]URP]	pEC50	7.53
H-ACF[dPhg]KYCV-OH (disulfide 2-7, also called compound 15) [[D-Phg^4]URP]	pEC50	7.56
ACF[dAia]KYCV (disulfide 2-7; not fully specified (bridges); reading uncertain; also: D-Aia indole ring bonded to Lys5 backbone N, also called compound 13) [[D-Aia^4]URP]	pEC50	7.22
H-ACF[Phe(4-I)]KYCV-OH (disulfide 2-7, H-Ala-Cys-Phe-Phe(I)-Lys-Tyr-Cys-Val-OH; also called compound 5; [para-iodo-Phe^4]URP) [[Phe(I)^4]URP]	pEC50	7.24
H-ACF[1Nal]KYCV-OH (disulfide 2-7, H-Ala-Cys-Phe-Nal-Lys-Tyr-Cys-Val-OH; also called compound 3) [[1-Nal^4]URP]	pEC50	7.77

Enquiry: I'd like to know its pEC50. The binder in question is ACF[d1Nal]KYCV (disulfide 2-7, also called compound 4; [D-Nal^4]URP) [[D-1-Nal^4]URP]
Return: 7.33

Enquiry: I'd like to know its pEC50. The binder in question is ACF[dTiq]KYCV (disulfide 2-7, also called compound 17) [[D-Tiq^4]URP]
Return: 7.68
